Target: HIV Env six-helix bundle (6HB) structure (Human immunodeficiency virus type 1 group M subtype B, UniProt P04579)
Construct: H9 cells chronically infected with HIV-1 (H9/HIV-1RF); endogenous in cells; host or cells: H9 cells chronically infected with HIV-1 strain RF (Env is made from the virus in the infected cells, not by transfection)
Sequence (P04579 32-519): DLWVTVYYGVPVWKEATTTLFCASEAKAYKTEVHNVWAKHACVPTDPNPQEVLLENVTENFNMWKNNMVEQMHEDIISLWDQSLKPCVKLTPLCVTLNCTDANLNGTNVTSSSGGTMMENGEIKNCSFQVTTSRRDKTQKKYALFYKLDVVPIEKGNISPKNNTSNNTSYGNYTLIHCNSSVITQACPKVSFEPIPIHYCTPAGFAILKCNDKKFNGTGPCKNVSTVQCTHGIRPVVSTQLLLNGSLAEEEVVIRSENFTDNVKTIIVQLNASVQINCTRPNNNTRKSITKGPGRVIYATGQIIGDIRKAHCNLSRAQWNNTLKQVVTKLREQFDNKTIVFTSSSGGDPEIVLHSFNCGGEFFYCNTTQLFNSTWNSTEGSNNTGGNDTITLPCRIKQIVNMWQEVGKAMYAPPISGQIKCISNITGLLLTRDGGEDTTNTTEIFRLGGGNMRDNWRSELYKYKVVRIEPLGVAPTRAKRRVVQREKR
Sequence (P04579 520-865): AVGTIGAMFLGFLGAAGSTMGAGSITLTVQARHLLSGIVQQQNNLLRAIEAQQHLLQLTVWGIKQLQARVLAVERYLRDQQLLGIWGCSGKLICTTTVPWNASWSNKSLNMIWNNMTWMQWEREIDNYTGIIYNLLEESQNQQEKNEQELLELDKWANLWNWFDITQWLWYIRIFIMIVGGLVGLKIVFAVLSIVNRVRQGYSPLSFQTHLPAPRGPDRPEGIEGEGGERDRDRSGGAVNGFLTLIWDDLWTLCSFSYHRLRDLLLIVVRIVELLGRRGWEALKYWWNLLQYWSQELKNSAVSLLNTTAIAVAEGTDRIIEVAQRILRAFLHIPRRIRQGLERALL
Assay: Six-helix bundle (6HB) assay
Assay type: cell-based, HIV-1 (strain RF)
Hi there, I'd appreciate the recorded IC50 for every entry that follows.

Examples with their reported IC50 follow.
>>> df
                                   compound  result_type       test_result
0  COc1ccc(-c2nc3c(C(=O)N4CCN(C(CO)c5cccc(N6CCOCC6)c5)C[C@H]4C)cnn3c(C(F)(F)F)c2C)cc1 (stereo partly drawn)         IC50  1100 to 10000 nM
1  COc1ccc(-c2nc3c(C(=O)N4CCN(C(CO)c5ccc(C#N)cc5)C[C@H]4C)cnn3c(C(F)(F)F)c2C)cc1 (stereo partly drawn)         IC50  1100 to 10000 nM
2  COc1ccc(-c2nc3c(C(=O)N4CCN([C@@H](CO)c5ccccc5)C[C@H]4C)cnn3c(N(C)C)c2F)cc1         IC50         < 1000 nM
3  COc1ccc(-c2nc3c(C(=O)N4CCN(C(CO)c5cccc(NC(=O)OC(C)(C)C)c5)C[C@H]4C)cnn3c(C(F)(F)F)c2C)cc1 (stereo partly drawn)         IC50  1100 to 10000 nM
4  CCc1ccc(-c2nc3c(C(=O)N4CCN([C@@H](CO)c5ccccc5)C[C@H]4C)cnn3c(C(F)(F)F)c2C)cc1         IC50         < 1000 nM

Dear reader, for each entry below, please note its IC50.
1. COc1ccc(-c2nc3c(C(=O)N4CCN(C(CO)c5ccoc5)C[C@H]4C)cnn3c(C(F)(F)F)c2C)cc1 (stereo partly drawn)
2. COc1ccc(-c2nc3c(C(=O)N4CCN(C(CO)c5c(F)ccc(F)c5F)C[C@H]4C)cnn3c(C(F)(F)F)c2C)cc1 (stereo partly drawn)
3. COc1ccc(-c2nc3c(C(=O)N4CCN([C@@H](C)c5cccs5)C[C@H]4C)cnn3c(C(F)(F)F)c2C)cc1
4. CCC(c1ccccc1)N1CCN(C(=O)c2cnn3c(C(F)(F)F)cc(-c4ccc(OC)cc4)nc23)CC1 (stereo not drawn)
5. COc1ccc(-c2nc3c(C(=O)N4CCN(C(CO)c5cccc(S(C)(=O)=O)c5)C[C@H]4C)cnn3c(C(F)(F)F)c2C)cc1 (stereo partly drawn)
6. COc1ccc(-c2cc(C(F)(F)F)n3ncc(C(=O)N4CCN(C(C)c5ccccc5)CC4)c3n2)cc1 (stereo not drawn)
7. COc1ccc(-c2nc3c(C(=O)N4CCN(C(CO)c5cccnc5OC)C[C@H]4C)cnn3c(C(F)(F)F)c2C)cc1 (stereo partly drawn)
8. COc1ccc(-c2nc3c(C(=O)N4CCN(C(CO)c5ccccc5Br)C[C@H]4C)cnn3c(C(F)(F)F)c2C)cc1 (stereo partly drawn)

Response:
1. < 1000 nM
2. < 1000 nM
3. < 1000 nM
4. 1100 to 10000 nM
5. > 10100 nM
6. 1100 to 10000 nM
7. < 1000 nM
8. < 1000 nM

Dear reader, for each entry below, please note its IC50.
1. COc1ccc(-c2nc3c(C(=O)N4CCN(C(CO)c5c(F)cccc5OC)C[C@H]4C)cnn3c(C(F)(F)F)c2C)cc1 (stereo partly drawn)
2. COc1ccc(-c2nc3c(C(=O)N4CCN([C@@H](CO)c5c(C)noc5C)C[C@H]4C)cnn3c(C(F)(F)F)c2C)cc1

Response:
1: < 1000 nM; 2: 1100 to 10000 nM

---

Target: HIV Env six-helix bundle (6HB) structure (Human immunodeficiency virus type 1 group M subtype B, UniProt P04579)
Construct: H9 cells chronically infected with HIV-1 (H9/HIV-1RF); endogenous in cells; host or cells: H9 cells chronically infected with HIV-1 strain RF (Env is made from the virus in the infected cells, not by transfection)
Assay: Six-helix bundle (6HB) assay
Format: cell-based, HIV-1 (strain RF)
Hi there, I'd appreciate the recorded IC50 for every entry that follows.

Examples with their reported IC50 follow.
                                   molecule   test_result
0  COc1ccc(-c2nc3c(C(=O)N4CCN(C(CO)c5cccc(Br)c5)C[C@H]4C)cnn3c(C(F)(F)F)c2C)cc1 (stereo partly drawn)        < 1 µM
1  COc1ccc(-c2nc3c(C(=O)N4CCN(C(CO)c5cccc(Cl)c5)C[C@H]4C)cnn3c(C(F)(F)F)c2C)cc1 (stereo partly drawn)        < 1 µM
2  COc1ccc(-c2nc3c(C(=O)N4CCN(C(CO)c5ccccc5NC(C)=O)C[C@H]4C)cnn3c(C(F)(F)F)c2C)cc1 (stereo partly drawn)     > 10.1 µM
3  COc1ccc(-c2nc3c(C(=O)N4CCN([C@@H](C)c5cccc(NC(=O)OC(C)(C)C)c5)C[C@H]4C)cnn3c(C(F)(F)F)c2C)cc1  1.1 to 10 µM
4  COc1ccc(-c2nc3c(C(=O)N4CCN(C(CO)c5cn[nH]c5)C[C@H]4C)cnn3c(C(F)(F)F)c2C)cc1 (stereo partly drawn)  1.1 to 10 µM

Dear reader, for each entry below, please note its IC50.
1. COc1ccc(-c2nc3c(C(=O)N4CCN(C(CO)c5ccccc5NC(=O)C5CC5)C[C@H]4C)cnn3c(C(F)(F)F)c2C)cc1 (stereo partly drawn)
2. COc1ccc(-c2nc3c(C(=O)N4CCN(C(CO)c5ccccc5OC)C[C@H]4C)cnn3c(C(F)(F)F)c2C)cc1 (stereo partly drawn)
3. Cc1c(-c2ccc(C3CC3)cc2)nc2c(C(=O)N3CCN([C@@H](CO)c4ccccc4)C[C@H]3C)cnn2c1C(F)(F)F
4. COc1ccc(-c2nc3c(C(=O)N4CCN([C@@H](CO)c5ccccc5)C[C@H]4C)cnn3c(C(F)(F)F)c2C)cc1 [drawing 184]
5. COc1ccc(-c2nc3c(C(=O)N4CCN([C@@H](CO)c5ccccc5)C[C@H]4C)cnn3c(C(F)(F)F)c2F)cc1
6. COC[C@@H](c1ccccc1)N1CCN(C(=O)c2cnn3c(C(F)(F)F)c(C)c(-c4ccc(OC)cc4)nc23)[C@H](C)C1

Response:
1: > 10.1 µM; 2: < 1 µM; 3: < 1 µM; 4: < 1 µM; 5: < 1 µM; 6: < 1 µM

Dear reader, for each entry below, please note its IC50.
1. COc1ccc(-c2nc3c(C(=O)N4CCN(C(CO)c5cc(C(C)=O)ccc5F)C[C@H]4C)cnn3c(C(F)(F)F)c2C)cc1 (stereo partly drawn)
2. COc1ccc(-c2nc3c(C(=O)N4CCN([C@H](CO)c5cccc(OC)c5F)C[C@H]4C)cnn3c(C(F)(F)F)c2C)cc1
3. COc1ccc(-c2nc3c(C(=O)N4CCN([C@@H](CO)c5cscc5C)C[C@H]4C)cnn3c(C(F)(F)F)c2C)cc1

Response:
< 1 µM
< 1 µM
< 1 µM

---

Biological target: HIV Env six-helix bundle (6HB) structure (Human immunodeficiency virus type 1 group M subtype B, UniProt P04579)
Construct: H9 cells chronically infected with HIV-1 (H9/HIV-1RF); endogenous in cells; host or cells: H9 cells chronically infected with HIV-1 strain RF (Env is made from the virus in the infected cells, not by transfection)
Test: Six-helix bundle (6HB) assay
Assay type: cell-based, HIV-1 (strain RF)
Hi there, I'd appreciate the recorded IC50 for every entry that follows.

Examples with their reported IC50 follow.
>>> print(df.to_string())
                                   compound  result_type       test_result
0  COc1ccc(-c2nc3c(C(=O)N4CCN(C(CO)c5cccc(C#N)c5)C[C@H]4C)cnn3c(C(F)(F)F)c2C)cc1 (stereo partly shown)         IC50         < 1000 nM
1  COc1ccc(-c2nc3c(C(=O)N4CCN(C(CO)c5cccnc5)C[C@H]4C)cnn3c(C(F)(F)F)c2C)cc1 (stereo partly shown)         IC50         < 1000 nM
2  COc1ccc(-c2nc3c(C(=O)N4CCN([C@@H](C)c5cccc(NC(N)=O)c5)C[C@H]4C)cnn3c(C(F)(F)F)c2C)cc1         IC50         < 1000 nM
3  COc1ccc(-c2nc3c(C(=O)N4CCN(C(CO)c5ccc(C(C)=O)s5)C[C@H]4C)cnn3c(C(F)(F)F)c2C)cc1 (stereo partly shown)         IC50  1100 to 10000 nM
4  COc1ccc(-c2nc3c(C(=O)N4CCN(C(CO)c5cccc(N6CCCC6)c5)C[C@H]4C)cnn3c(C(F)(F)F)c2C)cc1 (stereo partly shown)         IC50         < 1000 nM
5  COc1ccc(-c2nc3c(C(=O)N4CCN(C(CO)c5ccccc5C(F)(F)F)C[C@H]4C)cnn3c(C(F)(F)F)c2C)cc1 (stereo partly shown)         IC50         < 1000 nM

# context switch: different compound, same IC50
Request: Record request: IC50 value, item `COc1ccc(-c2nc3c(C(=O)N4CCN([C@@H](C)c5oc(C)nc5C)C[C@H]4C)cnn3c(C(F)(F)F)c2C)cc1`
Response: 1100 to 10000 nM
